# Assay system: human V1a receptor (Homo sapiens, UniProt P37288)
# Construct: expressed in transfected cells
# Sequence (P37288 whole entry): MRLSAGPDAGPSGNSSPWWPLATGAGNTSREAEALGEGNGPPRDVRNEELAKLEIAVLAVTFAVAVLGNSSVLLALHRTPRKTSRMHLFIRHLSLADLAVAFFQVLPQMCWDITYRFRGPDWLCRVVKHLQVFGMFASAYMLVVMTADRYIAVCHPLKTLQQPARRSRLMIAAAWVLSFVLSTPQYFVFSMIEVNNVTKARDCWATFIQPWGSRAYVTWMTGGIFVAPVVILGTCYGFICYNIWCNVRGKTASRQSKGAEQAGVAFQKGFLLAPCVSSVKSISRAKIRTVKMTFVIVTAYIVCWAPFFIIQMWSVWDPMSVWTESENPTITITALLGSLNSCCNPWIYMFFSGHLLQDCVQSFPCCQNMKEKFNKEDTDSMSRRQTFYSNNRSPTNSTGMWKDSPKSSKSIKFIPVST
# Test protocol: In-vitro binding assay (3H-arginine-8-vasopressin), V1a
# Test conditions: test concentration of 0.2 μM; read-out: V1a binding percent inhibition (in parentheses, where an IC50 value was not obtained)
Value kind: inhibition at 0.2 µM (%)
Numeric only. Scale: %

>  <Compound>
COc1cc(C(=O)N2CCC3(CCCC3N)Cc3ccccc32)ccc1NC(=O)c1cccc(F)c1 (stereo not shown) [Cpd 50]

>  <Unit tag>
%

>  <inhibition at 0.2 µM>
89

$$$$
>  <Compound>
Cc1ccn(-c2ccc(C(=O)N3CCC4(CCCC4=NO)Cc4ccccc43)cc2)n1 (stereo not shown) [Cpd 47]

>  <Unit tag>
%

>  <inhibition at 0.2 µM>
86

$$$$
>  <Compound>
O=C(c1ccc(N2CCCC2)cc1)N1CCC2(CCCC2=NO)Cc2ccccc21 (stereo not shown) [Cpd 46]

>  <Unit tag>
%

>  <inhibition at 0.2 µM>
73

$$$$

Below: the item to evaluate.
Entry O=C(Nc1ccc(C(=O)N2CC[C@]3(CCCC3=NO)Cc3ccccc32)cc1)c1cc(F)ccc1Cl [Cpd 45] — recorded inhibition at 0.2 µM = 67

###

# Assay system: human V1a receptor (Homo sapiens, UniProt P37288)
# Construct: expressed in transfected cells
# Test protocol: In-vitro binding assay (3H-arginine-8-vasopressin), V1a
# Test conditions: membrane containing human V1a receptor; 3H-arginine-8-vasopressin 0.65-0.75 nM
Mark satisfied only for IC50 values smaller than 10 nM; exact matches and larger values are not satisfied.

Example entries and their recorded answers appear below.
>  <Compound>
CN(C)N=C1CCCC12CCN(C(=O)c1ccc(NC(=O)c3cc(F)ccc3Cl)cc1)c1ccccc1C2 (centres unmarked)

>  <Label>
satisfied

$$$$
>  <Compound>
O=C(Nc1ccc(C(=O)N2CCC3(CCCC3=NO)Cc3ccccc32)cc1)c1cc(F)ccc1Cl (centres unmarked)

>  <Label>
satisfied

$$$$
>  <Compound>
Cc1ccccc1C(=O)Nc1ccc(C(=O)N2CCC3(CCCC3=NO)Cc3ccccc32)cc1 (centres unmarked)

>  <Label>
not satisfied

$$$$
>  <Compound>
COc1cc(C(=O)N2CCC3(CCCC3=NO)Cc3ccccc32)ccc1NC(=O)c1cc(F)ccc1Cl (centres unmarked)

>  <Label>
not satisfied

$$$$
>  <Compound>
O=C(NN=C1CCCC12CCN(C(=O)c1ccc(NC(=O)c3cc(F)ccc3Cl)cc1)c1ccccc1C2)c1cccnc1 (centres unmarked)

>  <Label>
not satisfied

$$$$
>  <Compound>
NCC(=O)NC1CCCC12CCN(C(=O)c1ccc(NC(=O)c3ccccc3-c3ccccc3)cc1)c1ccccc1C2 (centres unmarked)

>  <Label>
not satisfied

$$$$

Regarding COc1cc(C(=O)N2CCC3(CCCC3=NO)Cc3ccccc32)ccc1NC(=O)c1cccc(F)c1 (centres unmarked) , kindly confirm whether its IC50 is beneath 10 nM.
not satisfied

###

# Assay system: human V2 receptor (Homo sapiens)
# Sequence (P30518 whole entry): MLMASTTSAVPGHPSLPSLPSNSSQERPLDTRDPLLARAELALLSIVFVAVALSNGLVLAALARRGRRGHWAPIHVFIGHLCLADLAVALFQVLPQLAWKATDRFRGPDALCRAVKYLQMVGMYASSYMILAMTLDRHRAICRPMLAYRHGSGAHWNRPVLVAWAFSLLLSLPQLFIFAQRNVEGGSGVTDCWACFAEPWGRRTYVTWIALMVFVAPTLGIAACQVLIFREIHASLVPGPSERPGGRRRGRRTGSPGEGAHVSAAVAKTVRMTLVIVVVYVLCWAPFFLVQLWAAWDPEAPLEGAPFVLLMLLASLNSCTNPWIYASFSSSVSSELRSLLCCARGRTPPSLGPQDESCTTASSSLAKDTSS
# Test protocol: V2 vasopressin receptor functional activity (cAMP accumulation)
# Assay type: cell-based
# Design: expressed in transfected cells; host or cells: HEK-293
# Test conditions: V2-HEK cells; block of vasopressin-stimulated cAMP accumulation; read-out: V2 (functional) IC50
Each entry below carries its reported IC50.
Numeric only. Scale: nM

>  <Compound>
NC1CCCC12CCN(C(=O)c1ccc(NC(=O)c3ccccc3-c3ccccc3)cc1)c1ccccc1C2 (centres unmarked)

>  <IC50, nM>
690

$$$$

Simply: `COc1cc(C(=O)N2CC[C@@]3(CC[C@H](NS(N)(=O)=O)C3)Cc3ccccc32)ccc1NC(=O)c1cc(F)ccc1Cl` , human V2 receptor (Homo sapiens), IC50 = 250

Simply: O=C(Nc1ccc(C(=O)N2CCC3(CCCC3=NNc3ccccn3)Cc3ccccc32)cc1)c1cc(F)ccc1Cl (centres unmarked) , human V2 receptor (Homo sapiens), IC50 = 200

Simply: COc1cc(C(=O)N2CCC3(CCCC3NS(N)(=O)=O)Cc3ccccc32)ccc1NC(=O)c1cc(F)ccc1Cl (centres unmarked) , human V2 receptor (Homo sapiens), IC50 = 31

Simply: `COc1cc(C(=O)N2CC[C@]3(C=C(c4nnn[nH]4)CC3)Cc3ccccc32)ccc1NC(=O)c1cc(F)ccc1Cl` , human V2 receptor (Homo sapiens), IC50 = 40

Simply: NN=C1CCCC12CCN(C(=O)c1ccc(NC(=O)c3cc(F)ccc3Cl)cc1)c1ccccc1C2 (centres unmarked) , human V2 receptor (Homo sapiens), IC50 = 54

Simply: Cn1ccnc1C1=CCCC12CCN(C(=O)c1ccc(NC(=O)c3cc(F)ccc3Cl)cc1)c1ccccc1C2 (centres unmarked) , human V2 receptor (Homo sapiens), IC50 = 66

Simply: `COc1cc(C(=O)N2CC[C@@]3(CC[C@@H](NS(N)(=O)=O)C3)Cc3ccccc32)ccc1NC(=O)c1cc(F)ccc1Cl` , human V2 receptor (Homo sapiens), IC50 = 44

Simply: CN(C)C1CCCC12CCN(C(=O)c1ccc(NC(=O)c3cc(F)ccc3Cl)cc1)c1ccccc1C2 (centres unmarked) , human V2 receptor (Homo sapiens), IC50 = 107

Simply: `NS(=O)(=O)NC(=O)C1=C[C@@]2(CC1)CCN(C(=O)c1ccc(NC(=O)c3cc(F)ccc3Cl)cc1)c1ccccc1C2` , human V2 receptor (Homo sapiens), IC50 = 35

Simply: COc1cc(C(=O)N2CC[C@@]3(CCC(NCCN(C)C)C3)Cc3ccccc32)ccc1NC(=O)c1cc(F)ccc1Cl (some centres unmarked) , human V2 receptor (Homo sapiens), IC50 = 1100

Simply: COc1cc(C(=O)N2CC[C@@]3(CCC(N4CCCC4)C3)Cc3ccccc32)ccc1NC(=O)c1cc(F)ccc1Cl (some centres unmarked) , human V2 receptor (Homo sapiens), IC50 = 1000

Simply: `COc1cc(C(=O)N2CC[C@@]3(CCC(=CC(=O)O)C3)Cc3ccccc32)ccc1NC(=O)c1cc(F)ccc1Cl` , human V2 receptor (Homo sapiens), IC50 = 74

Simply: `COc1cc(C(=O)N2CC[C@@]3(CCC(=CC(=O)NCCO)C3)Cc3ccccc32)ccc1NC(=O)c1cc(F)ccc1Cl` , human V2 receptor (Homo sapiens), IC50 = 90

Simply: `COc1cc(C(=O)N2CC[C@]3(C=C(C(=O)NS(=O)(=O)N(C)C)CC3)Cc3ccccc32)ccc1NC(=O)c1cc(F)ccc1Cl` , human V2 receptor (Homo sapiens), IC50 = 170

Simply: `COC(=O)C=C1CC[C@@]2(CCN(C(=O)c3ccc(NC(=O)c4cc(F)ccc4Cl)c(OC)c3)c3ccccc3C2)C1` , human V2 receptor (Homo sapiens), IC50 = 70

Simply: `COc1cc(C(=O)N2CC[C@]3(C=C(C4=NCCN4)CC3)Cc3ccccc32)ccc1NC(=O)c1cc(F)ccc1Cl` , human V2 receptor (Homo sapiens), IC50 = 1100

Simply: `O=C(Nc1ccc(C(=O)N2CC[C@]3(CCCC3=NO)Cc3ccccc32)cc1)c1cc(F)ccc1Cl` , human V2 receptor (Homo sapiens), IC50 = 550
